Values were extracted from ChEMBL document CHEMBL1961873.

# Test system: Proto-oncogene tyrosine-protein kinase receptor Ret (Homo sapiens), P07949 [Y791F]
# Sequence (P07949 whole entry Y791F): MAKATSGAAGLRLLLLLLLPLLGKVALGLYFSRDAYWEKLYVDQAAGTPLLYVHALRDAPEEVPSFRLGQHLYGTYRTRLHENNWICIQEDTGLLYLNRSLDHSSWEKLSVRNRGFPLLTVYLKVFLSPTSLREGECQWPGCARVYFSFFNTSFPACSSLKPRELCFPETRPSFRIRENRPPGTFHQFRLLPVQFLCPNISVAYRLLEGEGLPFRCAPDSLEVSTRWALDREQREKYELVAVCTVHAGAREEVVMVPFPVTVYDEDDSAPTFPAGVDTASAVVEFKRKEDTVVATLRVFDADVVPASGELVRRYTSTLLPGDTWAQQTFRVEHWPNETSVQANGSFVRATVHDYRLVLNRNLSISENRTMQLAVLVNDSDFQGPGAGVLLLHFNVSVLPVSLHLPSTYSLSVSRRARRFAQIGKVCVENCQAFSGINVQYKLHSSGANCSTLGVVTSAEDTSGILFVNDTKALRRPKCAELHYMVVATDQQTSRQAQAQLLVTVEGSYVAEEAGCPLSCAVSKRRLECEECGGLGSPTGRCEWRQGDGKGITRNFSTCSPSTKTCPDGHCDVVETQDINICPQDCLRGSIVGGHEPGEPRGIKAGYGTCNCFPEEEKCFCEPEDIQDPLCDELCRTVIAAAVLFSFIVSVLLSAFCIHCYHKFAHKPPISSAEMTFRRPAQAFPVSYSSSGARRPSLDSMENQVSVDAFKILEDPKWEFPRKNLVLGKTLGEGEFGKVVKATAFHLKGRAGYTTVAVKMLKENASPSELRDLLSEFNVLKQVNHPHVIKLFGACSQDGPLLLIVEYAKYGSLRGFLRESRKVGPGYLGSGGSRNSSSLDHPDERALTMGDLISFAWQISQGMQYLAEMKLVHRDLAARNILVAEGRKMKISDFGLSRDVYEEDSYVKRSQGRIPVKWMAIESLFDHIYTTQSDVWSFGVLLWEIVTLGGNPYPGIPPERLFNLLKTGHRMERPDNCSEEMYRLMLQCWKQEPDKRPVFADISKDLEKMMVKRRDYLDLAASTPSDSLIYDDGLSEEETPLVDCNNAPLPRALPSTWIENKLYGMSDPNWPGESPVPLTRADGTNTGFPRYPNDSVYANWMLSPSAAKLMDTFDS
# particulars: at 0.1 µM
Decide using inhibition: a value greater than or equal to 3% is satisfied, a smaller one is not satisfied.

Problem: Exam item: decide whether the reported inhibition for `NC(=O)c1sc(-n2cnc3cc(C(F)(F)F)ccc32)cc1OCc1ccccc1Br` is at least 3%.
Solution: not satisfied

Problem: Exam item: decide whether the reported inhibition for `COc1cc2c(cc1Nc1nc(Nc3ccsc3C(N)=O)c3cc[nH]c3n1)N(C(=O)CN(C)C)CCC2` is at least 3%.
Solution: not satisfied

Problem: Exam item: decide whether the reported inhibition for `NS(=O)(=O)c1ccc(-c2ccc3c(NC(=O)C4CC4)n[nH]c3c2)cc1` is at least 3%.
Solution: satisfied

Problem: Exam item: decide whether the reported inhibition for `CCn1c(-c2nonc2N)nc2c(C#CC(C)(C)O)ncc(OCC3CCNCC3)c21` is at least 3%.
Solution: satisfied

Problem: Exam item: decide whether the reported inhibition for `COc1cccc(COc2cc(-n3cnc4ccccc43)sc2C(N)=O)c1` is at least 3%.
Solution: not satisfied

Problem: Exam item: decide whether the reported inhibition for `NS(=O)(=O)c1ccc(N/C=C2\C(=O)Nc3ccc4ncsc4c32)cc1` is at least 3%.
Solution: satisfied

Problem: Exam item: decide whether the reported inhibition for `CCn1c(-c2nonc2N)nc2c(C#CC(C)(C)O)nc(O[C@@H](CN)c3ccccc3)cc21` is at least 3%.
Solution: satisfied

###

# testedTarget: Tyrosine-protein kinase JAK3 (Homo sapiens)
# Sequence (whole entry): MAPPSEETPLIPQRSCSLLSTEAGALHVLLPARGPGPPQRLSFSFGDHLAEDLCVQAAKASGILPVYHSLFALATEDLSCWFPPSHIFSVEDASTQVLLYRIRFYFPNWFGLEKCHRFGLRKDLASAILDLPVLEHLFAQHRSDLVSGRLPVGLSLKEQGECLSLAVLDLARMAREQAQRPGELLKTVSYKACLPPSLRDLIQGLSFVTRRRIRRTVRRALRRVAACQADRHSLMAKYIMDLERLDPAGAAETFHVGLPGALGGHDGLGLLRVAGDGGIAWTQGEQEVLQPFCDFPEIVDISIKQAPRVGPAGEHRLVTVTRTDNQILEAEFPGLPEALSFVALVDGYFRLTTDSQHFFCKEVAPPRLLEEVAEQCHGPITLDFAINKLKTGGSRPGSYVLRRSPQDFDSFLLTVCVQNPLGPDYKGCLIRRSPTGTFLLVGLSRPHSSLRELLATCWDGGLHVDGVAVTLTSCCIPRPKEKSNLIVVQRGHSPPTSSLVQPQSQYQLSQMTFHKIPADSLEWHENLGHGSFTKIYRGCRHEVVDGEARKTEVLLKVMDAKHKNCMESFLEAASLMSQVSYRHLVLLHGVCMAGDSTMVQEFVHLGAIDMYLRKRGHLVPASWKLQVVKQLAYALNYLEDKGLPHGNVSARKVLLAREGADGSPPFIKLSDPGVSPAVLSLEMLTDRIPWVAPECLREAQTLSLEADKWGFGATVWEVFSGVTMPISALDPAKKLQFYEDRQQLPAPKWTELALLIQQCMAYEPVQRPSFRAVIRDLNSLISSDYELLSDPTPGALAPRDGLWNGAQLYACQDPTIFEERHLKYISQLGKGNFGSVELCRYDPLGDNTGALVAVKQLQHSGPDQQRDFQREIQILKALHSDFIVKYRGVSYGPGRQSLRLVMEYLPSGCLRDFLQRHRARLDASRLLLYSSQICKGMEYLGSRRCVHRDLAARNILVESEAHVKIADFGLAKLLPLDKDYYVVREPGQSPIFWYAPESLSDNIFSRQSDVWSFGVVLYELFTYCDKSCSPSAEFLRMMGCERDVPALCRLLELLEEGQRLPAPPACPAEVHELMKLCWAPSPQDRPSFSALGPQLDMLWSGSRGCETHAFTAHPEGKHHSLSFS
# particulars: at 0.1 µM
metric: inhibition (%)
The reply should contain only the number, in %.

Problem: # query: inhibition | item `COc1cc(C=NNc2ncnc3c2cnn3Cc2ccccc2)ccc1O` | system: Tyrosine-protein kinase JAK3 (Homo sapiens)
Solution: 0.38

Problem: # query: inhibition | item `CCn1c(-c2nonc2N)nc2c(C#CC(C)(C)O)nc(O[C@@H](CN)c3ccccc3)cc21` | system: Tyrosine-protein kinase JAK3 (Homo sapiens)
Solution: 0.59

Problem: # query: inhibition | item `Nc1nonc1-c1nc2cnccc2n1C1CCCCC1` | system: Tyrosine-protein kinase JAK3 (Homo sapiens)
Solution: -0.04

Problem: # query: inhibition | item `COc1cc2c(cc1Nc1nc(Nc3ccsc3C(N)=O)c3cc[nH]c3n1)N(C(=O)CN(C)C)CCC2` | system: Tyrosine-protein kinase JAK3 (Homo sapiens)
Solution: -2.19

Problem: # query: inhibition | item `CCn1c(-c2nonc2N)nc2c(C#CC(C)(C)O)ncc(OCC3CCNCC3)c21` | system: Tyrosine-protein kinase JAK3 (Homo sapiens)
Solution: -4.99

Problem: # query: inhibition | item `CCn1c(-c2nonc2N)nc2c(C#CC(C)(C)O)ncc(OC[C@@H]3CCCN3)c21` | system: Tyrosine-protein kinase JAK3 (Homo sapiens)
Solution: -2.14

Problem: # query: inhibition | item `Cc1cc(-c2ccco2)cc(C)c1/C=C/c1cncc(-c2nn[nH]n2)c1` | system: Tyrosine-protein kinase JAK3 (Homo sapiens)
Solution: -1.94

Problem: # query: inhibition | item `NC(=O)c1sc(-n2cnc3cc(C(F)(F)F)ccc32)cc1OCc1ccccc1Br` | system: Tyrosine-protein kinase JAK3 (Homo sapiens)
Solution: -1.17

Problem: # query: inhibition | item `COc1cccc(COc2cc(-n3cnc4ccccc43)sc2C(N)=O)c1` | system: Tyrosine-protein kinase JAK3 (Homo sapiens);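 note: values reported are mean percent inhibition of JAK3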
Solution: -1.45

###

# testedTarget: Serine/threonine-protein kinase pim-1 (Homo sapiens)
# particulars: at 0.1 µM
For each of the compounds below, state its inhibition.
The reply should contain only the number, in %.

Problem: # query: inhibition | item `NS(=O)(=O)c1ccc(N/C=C2\C(=O)Nc3ccc4ncsc4c32)cc1` | system: Serine/threonine-protein kinase pim-1 (Homo sapiens)
Solution: 1.16

Problem: # query: inhibition | item `CCn1c(-c2nonc2N)nc2c(C#CCN)ncc(OCCCN)c21` | system: Serine/threonine-protein kinase pim-1 (Homo sapiens)
Solution: 4.76

Problem: # query: inhibition | item `COc1cccc(-n2ncc3c(N/N=C/c4ccncc4)ncnc32)c1` | system: Serine/threonine-protein kinase pim-1 (Homo sapiens)
Solution: 1.36

Problem: # query: inhibition | item `NC(=O)c1sc(-n2cnc3cc(C(F)(F)F)ccc32)cc1OCc1ccccc1Br` | system: Serine/threonine-protein kinase pim-1 (Homo sapiens)
Solution: 1.18

Problem: # query: inhibition | item `COc1cc(C=NNc2ncnc3c2cnn3Cc2ccccc2)ccc1O` | system: Serine/threonine-protein kinase pim-1 (Homo sapiens)
Solution: -0.98

Problem: # query: inhibition | item `CCn1c(-c2nonc2N)nc2c(C#CC(C)(C)O)ncc(OCC3CCNCC3)c21` | system: Serine/threonine-protein kinase pim-1 (Homo sapiens)
Solution: 2.14

Problem: # query: inhibition | item `Fc1ccc(-c2ncn(C3CCNCC3)c2-c2ccnc(Oc3ccccc3)n2)cc1` | system: Serine/threonine-protein kinase pim-1 (Homo sapiens);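 note: reported value is the mean inhibition of PIM1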
Solution: -1.15

###

# testedTarget: Serine/threonine-protein kinase MRCK alpha (Homo sapiens);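 note: each inhibition figure is a mean value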
# particulars: at 0.1 µM
metric: inhibition (%)
The reply should contain only the number, in %.

Problem: Any idea what its inhibition is? The compound is `CCn1c(-c2nonc2N)nc2c(C#CC(C)(C)O)ncc(OCC3CCNCC3)c21`
Solution: 3.52

Problem: Any idea what its inhibition is? The compound is `Nc1nonc1-c1nc2cnccc2n1C1CCCCC1`
Solution: 18.6

Problem: Any idea what its inhibition is? The compound is `NC(=O)c1sc(-n2cnc3cc(C(F)(F)F)ccc32)cc1OCc1ccccc1Br`
Solution: -1.08

Problem: Any idea what its inhibition is? The compound is `COc1cccc(-n2ncc3c(N/N=C/c4ccncc4)ncnc32)c1`
Solution: -0.11

Problem: Any idea what its inhibition is? The compound is `CCn1c(-c2nonc2N)nc2c(C#CCN)ncc(OCCCN)c21`
Solution: 6.68

Problem: Any idea what its inhibition is? The compound is `Cc1cc(-c2ccco2)cc(C)c1/C=C/c1cncc(-c2nn[nH]n2)c1`
Solution: -2.3

Problem: Any idea what its inhibition is? The compound is `COc1cc(C=NNc2ncnc3c2cnn3Cc2ccccc2)ccc1O`
Solution: 1.44

Problem: Any idea what its inhibition is? The compound is `CCn1c(-c2nonc2N)nc2c(C#CC(C)(C)O)nc(O[C@@H](CN)c3ccccc3)cc21`
Solution: 29

###

For each of the compounds below, state its inhibition.
# testedTarget: Ephrin type-B receptor 3 (Homo sapiens) (UniProt P54753);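 note: values are mean percent inhibition of EPHB3 from the GSK PKIS screening panel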
# Sequence (P54753 whole entry): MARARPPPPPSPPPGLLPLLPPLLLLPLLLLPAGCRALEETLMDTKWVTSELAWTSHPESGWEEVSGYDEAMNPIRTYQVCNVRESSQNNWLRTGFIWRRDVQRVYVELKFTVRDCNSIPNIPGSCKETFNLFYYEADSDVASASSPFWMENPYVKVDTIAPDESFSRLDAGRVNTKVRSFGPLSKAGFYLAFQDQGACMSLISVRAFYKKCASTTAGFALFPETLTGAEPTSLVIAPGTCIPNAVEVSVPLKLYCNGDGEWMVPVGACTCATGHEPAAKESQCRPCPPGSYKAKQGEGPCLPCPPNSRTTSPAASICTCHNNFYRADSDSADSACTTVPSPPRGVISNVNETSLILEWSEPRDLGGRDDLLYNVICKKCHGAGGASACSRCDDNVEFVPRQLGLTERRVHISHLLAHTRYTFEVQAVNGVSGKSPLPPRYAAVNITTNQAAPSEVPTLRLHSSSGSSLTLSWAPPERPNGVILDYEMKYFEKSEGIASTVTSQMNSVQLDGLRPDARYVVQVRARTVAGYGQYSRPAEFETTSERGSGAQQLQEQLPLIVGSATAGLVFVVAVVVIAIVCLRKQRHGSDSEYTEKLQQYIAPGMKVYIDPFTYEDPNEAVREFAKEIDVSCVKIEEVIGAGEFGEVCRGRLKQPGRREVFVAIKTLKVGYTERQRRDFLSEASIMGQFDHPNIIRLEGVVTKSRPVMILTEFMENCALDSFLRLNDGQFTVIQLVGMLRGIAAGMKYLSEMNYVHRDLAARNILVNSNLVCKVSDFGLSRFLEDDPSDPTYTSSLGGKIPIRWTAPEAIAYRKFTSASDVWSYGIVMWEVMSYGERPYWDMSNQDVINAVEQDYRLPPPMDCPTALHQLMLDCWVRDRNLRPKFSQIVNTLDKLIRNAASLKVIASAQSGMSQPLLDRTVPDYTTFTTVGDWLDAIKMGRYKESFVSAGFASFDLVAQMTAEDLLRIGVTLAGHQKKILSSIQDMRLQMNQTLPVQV
# particulars: at 1 µM
The reply should contain only the number, in %.

Problem: Any idea what its inhibition is? The compound is `NS(=O)(=O)c1ccc(N/C=C2\C(=O)Nc3ccc4ncsc4c32)cc1`
Solution: 4.36

Problem: Any idea what its inhibition is? The compound is `COc1cccc(COc2cc(-n3cnc4ccccc43)sc2C(N)=O)c1`
Solution: 2.27

Problem: Any idea what its inhibition is? The compound is `Cc1cc(-c2ccco2)cc(C)c1/C=C/c1cncc(-c2nn[nH]n2)c1`
Solution: 4.16

Problem: Any idea what its inhibition is? The compound is `NC(=O)c1sc(-n2cnc3cc(C(F)(F)F)ccc32)cc1OCc1ccccc1Br`
Solution: 3.79

Problem: Any idea what its inhibition is? The compound is `CCn1c(-c2nonc2N)nc2c(C#CCN)ncc(OCCCN)c21`
Solution: 1.18

Problem: Any idea what its inhibition is? The compound is `COc1cc(C=NNc2ncnc3c2cnn3Cc2ccccc2)ccc1O`
Solution: -0.1

Problem: Any idea what its inhibition is? The compound is `Nc1nonc1-c1nc2cnccc2n1C1CCCCC1`
Solution: -4.08
